Tested on: PPARg:RXRa (NR concentration 180 nM, RXRa partner concentration 90 nM)
EXPERIMENTAL_DETAILS: PBM binding z-score (relative to random genomic background probes); higher = stronger binding; sequences stand for … in GC…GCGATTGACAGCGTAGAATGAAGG
The threshold is inclusive: PBM binding z-score of exactly 3 counts as 1; values below receive -1.

In [3]: df
Out[3]:
                        input_sequence  label_value
 0  TCTTGTAGATCAACAGGAGGTTATGAAAGATCGA           -1
 1  CCTACTGGGCCACGAAAGGTCTTTGATTCAGTGA           -1
 2  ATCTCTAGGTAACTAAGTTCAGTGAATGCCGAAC           -1
 3  CCTACTGGGCCAAAAAGGTCATGGATGCCGATAA            1
 4  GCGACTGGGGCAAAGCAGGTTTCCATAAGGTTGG           -1
 5  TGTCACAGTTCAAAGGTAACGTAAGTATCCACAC            1
 6  ACAGACAGGTGATGAAGGTAACTCAGGCTATCAT           -1
 7  TCTATTAGTTTAAGGGCAACCGACGAGTCCGTTT           -1
 8  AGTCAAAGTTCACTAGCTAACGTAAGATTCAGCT            1
 9  CGTACAGGGTCAGCTAGGCCAGAGTAGGGACGGC            1
10  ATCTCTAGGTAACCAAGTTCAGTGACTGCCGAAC           -1
11  GCTGCTAGATCAGGTTGGTCAGCTAACGGGTACG           -1
12  TCTATTTGTTGAAGGGCAACCGACGAGTCCGTTT           -1
13  CCGACTGGGGCAAGGTTACCATGACGCACAGCCA           -1
14  TTACCAAGGTGAAGGTTGTTGATCCCTCTGTAGA           -1
15  CCTTACGGGTCAAGATTATAGCACGGGTGGTACG            1
16  TGAATGAGGTTATAAGTTCAGGGAACGTTGCAAA           -1
17  GCTATTAGTTGAAAGGGCAACCGCATGATTCTCG           -1
18  TCTTGTAAATCAACAGGAGGTTAAGAAAGATCGA           -1
19  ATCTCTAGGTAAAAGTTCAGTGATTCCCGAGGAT            1
20  CCTACTGGGCCATCAGGACATTGATATCAACGTT           -1
21  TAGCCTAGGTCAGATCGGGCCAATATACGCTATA           -1
22  AGAATGAGGTTATACGTAGATCAGGGACGAAAGT           -1
23  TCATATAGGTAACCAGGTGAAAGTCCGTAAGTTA            1

====

Test system: VDR homodimer (NR concentration 270 nM)
EXPERIMENTAL_DETAILS: PBM binding z-score (relative to random genomic background probes); higher = stronger binding; sequences stand for … in GC…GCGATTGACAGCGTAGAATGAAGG
OBSERVED_PROPERTY: PBM binding z-score

In [3]: df
Out[3]:
                        input_sequence  recorded_number
 0  CCTTACGGGTCAAGGTTAAAGCACGGGTGGTACG             1.43
 1  TGAATGATGTTATAAGATCAGGGAACGTTGCAAA            -0.22
 2  CCTTACGGGTCAACGTTATAGCACGGGTGGTACG            0.692
 3  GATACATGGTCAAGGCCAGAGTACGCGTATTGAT           0.0812
 4  CCTCGGAGGACAACAGGAGGTCAGAGCTGCCAGA             1.21
 5  GCTACTGGGGCATCAGCAGGTTACCATAACTTAA            -0.67
 6  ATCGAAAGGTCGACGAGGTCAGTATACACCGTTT             4.57
 7  TGAATGAGGTTATAAGATCAGGGAGCGTTGCAAA            0.229
 8  TGAATGAGGTTAAAGATCAGGGAGCGTGGCGTCG          -0.0422
 9  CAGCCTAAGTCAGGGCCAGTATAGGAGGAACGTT           -0.363
10  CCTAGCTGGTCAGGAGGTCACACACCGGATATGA             2.14
11  TCTGCTAGGTCAACGATGGTCAGCAAATCTGCTA           -0.402
12  TCATATAGGTAATACAGGTGGAAGTCGGCATCTA            0.547
13  TCTGCTAGGTCAACGATGGTCGGCTAATCTGCTA           -0.232
14  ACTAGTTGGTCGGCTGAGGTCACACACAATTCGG             3.84
15  ATCTCTAGGTAGCAAGTTCAGTGAAAGAGAGGAC             2.36
16  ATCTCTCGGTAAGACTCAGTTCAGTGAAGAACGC             2.06
17  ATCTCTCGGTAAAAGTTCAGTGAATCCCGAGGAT             1.74
18  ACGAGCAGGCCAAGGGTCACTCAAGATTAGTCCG            0.916
19  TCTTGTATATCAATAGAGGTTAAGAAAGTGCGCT             0.47
20  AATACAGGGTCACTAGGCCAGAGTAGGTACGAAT              2.5
21  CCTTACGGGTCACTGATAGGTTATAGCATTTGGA             1.17
22  AGAATGAGGTTACCAAAGATGAGGGAAACGCTTG            0.767
23  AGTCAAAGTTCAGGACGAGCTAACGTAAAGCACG              1.5
24  AATACAGGGTCATCGGAGGCCAGAGTACGCACAG             3.88
25  GGAACGAGGGCAAAGTTGATAGTATCTGTCGACG             1.64

====

Test system: RARb homodimer (NR concentration 270 nM)
EXPERIMENTAL_DETAILS: PBM binding z-score (relative to random genomic background probes); higher = stronger binding; sequences stand for … in GC…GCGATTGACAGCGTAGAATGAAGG
Everything with PBM binding z-score lower than 2 is No; everything else, including exactly 2, is Yes.

                        input_sequence                               test_system  label_value
 0  TCCGCTAGGTCAACGATGGTCAGCTAATCTGCTA  RARb homodimer (NR concentration 270 nM)          Yes
 1  CCGAGTAGGTTATGGGGCACTCAGGCAACGGTGA  RARb homodimer (NR concentration 270 nM)           No
 2  CAAACTAGGTCAAACGTCAAAGTCGAGCCAACCA  RARb homodimer (NR concentration 270 nM)          Yes
 3  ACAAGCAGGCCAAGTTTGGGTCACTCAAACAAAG  RARb homodimer (NR concentration 270 nM)          Yes
 4  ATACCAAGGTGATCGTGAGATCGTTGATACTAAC  RARb homodimer (NR concentration 270 nM)           No
 5  GTGCCAAGGTGAATAGGTCGTTGATGAGTAGGCG  RARb homodimer (NR concentration 270 nM)           No
 6  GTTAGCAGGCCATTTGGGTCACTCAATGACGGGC  RARb homodimer (NR concentration 270 nM)           No
 7  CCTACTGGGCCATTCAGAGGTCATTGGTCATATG  RARb homodimer (NR concentration 270 nM)          Yes
 8  ATATGTAGGTTATCGGGTCATTTAGTTTGCGCAT  RARb homodimer (NR concentration 270 nM)          Yes
 9  ACTATAAGTTGACTTAGGGCAACCGATACGACGC  RARb homodimer (NR concentration 270 nM)           No
10  CAGACTAGGTCACCGGAAGGTCAAAGTCCGCATG  RARb homodimer (NR concentration 270 nM)          Yes
11  TTAATGAGGTTATAAGATCAGGGAACGTTGCAAA  RARb homodimer (NR concentration 270 nM)           No
12  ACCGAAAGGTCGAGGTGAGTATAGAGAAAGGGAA  RARb homodimer (NR concentration 270 nM)          Yes
13  CCTTCCGGGTCACTCCAGGTTATAGCATCGGAGT  RARb homodimer (NR concentration 270 nM)          Yes
14  GGAATGAGGGCATTCGAGTTGATAGCATGGCGAT  RARb homodimer (NR concentration 270 nM)           No
15  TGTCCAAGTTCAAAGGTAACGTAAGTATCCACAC  RARb homodimer (NR concentration 270 nM)          Yes
16  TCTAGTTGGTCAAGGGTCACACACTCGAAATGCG  RARb homodimer (NR concentration 270 nM)          Yes
17  ACTATTAGTTGACTTTGGGCAACCGATACGACGC  RARb homodimer (NR concentration 270 nM)           No
18  CCTACTGGGTCAAGGTCATTGATCAGTCAAAGCA  RARb homodimer (NR concentration 270 nM)          Yes
19  TCAGATAGGTAAACAGGTGAAAGTCCGTAAGTTA  RARb homodimer (NR concentration 270 nM)           No
20  ATTTCTAGGTAAGACTCAGTTCAGTGAAGAACGC  RARb homodimer (NR concentration 270 nM)           No
21  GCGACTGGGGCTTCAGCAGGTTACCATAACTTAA  RARb homodimer (NR concentration 270 nM)           No
22  AATACAGGGTCATCGTAGTCCAGAGTACGCACAG  RARb homodimer (NR concentration 270 nM)          Yes
23  TCTATTAGTTGATTTGGGCAACCGAAACAGCGGA  RARb homodimer (NR concentration 270 nM)           No
24  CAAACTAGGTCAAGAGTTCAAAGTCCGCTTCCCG  RARb homodimer (NR concentration 270 nM)          Yes
25  CAAACTAGGTCAACGTCAAAGTCGGTTTGTGCCA  RARb homodimer (NR concentration 270 nM)          Yes
26  CCTCCAAGGTCAGCAGGTCAGTGAAAGCGACGTG  RARb homodimer (NR concentration 270 nM)          Yes
27  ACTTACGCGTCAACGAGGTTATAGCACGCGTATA  RARb homodimer (NR concentration 270 nM)           No
28  TCTCGGAGGACACGTAGGTCAGAGCTTTCCAGAG  RARb homodimer (NR concentration 270 nM)          Yes
29  CAAACTAGGTCAGAGGTCAAAGTCGAGCCAACCA  RARb homodimer (NR concentration 270 nM)          Yes
30  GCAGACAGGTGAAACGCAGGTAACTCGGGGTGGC  RARb homodimer (NR concentration 270 nM)           No
31  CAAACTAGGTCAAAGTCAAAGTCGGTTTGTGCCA  RARb homodimer (NR concentration 270 nM)          Yes
32  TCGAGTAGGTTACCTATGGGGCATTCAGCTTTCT  RARb homodimer (NR concentration 270 nM)           No
33  TGTCAAAGTTCAAATGTAACGTAAGTATCCACAC  RARb homodimer (NR concentration 270 nM)          Yes
34  ACTATGAGTTGACTTAGGGCAACCGATACGACGC  RARb homodimer (NR concentration 270 nM)           No
35  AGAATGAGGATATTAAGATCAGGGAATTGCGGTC  RARb homodimer (NR concentration 270 nM)           No
36  GCTAGTAGTTGAAAGGGCAACCGAATGATTCTCG  RARb homodimer (NR concentration 270 nM)           No
37  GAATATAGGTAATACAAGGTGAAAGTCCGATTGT  RARb homodimer (NR concentration 270 nM)           No
38  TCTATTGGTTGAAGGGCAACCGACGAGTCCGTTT  RARb homodimer (NR concentration 270 nM)           No
39  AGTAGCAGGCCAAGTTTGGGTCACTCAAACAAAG  RARb homodimer (NR concentration 270 nM)          Yes
40  TCTAGCTGGCCAGAGGGTCACTCAAGAGGTACGG  RARb homodimer (NR concentration 270 nM)          Yes
41  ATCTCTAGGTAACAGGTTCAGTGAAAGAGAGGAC  RARb homodimer (NR concentration 270 nM)           No
42  AGATTGAGGTTATACGTAGATCAGGGAAGAAAGT  RARb homodimer (NR concentration 270 nM)           No
43  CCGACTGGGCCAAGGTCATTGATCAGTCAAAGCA  RARb homodimer (NR concentration 270 nM)          Yes
44  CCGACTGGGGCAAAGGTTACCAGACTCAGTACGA  RARb homodimer (NR concentration 270 nM)          Yes
45  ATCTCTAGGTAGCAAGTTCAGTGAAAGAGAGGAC  RARb homodimer (NR concentration 270 nM)           No
46  AATACAGGGTCATCCTAGGCCAGAGTACGCACAG  RARb homodimer (NR concentration 270 nM)          Yes
47  TGAATGAGGTTATAAGATCAGGGGACGTTGCAAA  RARb homodimer (NR concentration 270 nM)           No
48  CTCGAAAGGTCTTGCTCAGGTGAGTATACCAAAC  RARb homodimer (NR concentration 270 nM)           No
49  GATACAGGGTAAAGGCCAGAGTACGCGTATTGAT  RARb homodimer (NR concentration 270 nM)           No
